src = ChEMBL document CHEMBL2157861

target: Phosphatidylinositol 4,5-bisphosphate 3-kinase catalytic subunit beta isoform (Homo sapiens); test: Inhibition of human recombinant His6-tagged PI3K p110beta expressed in baculovirus using DiC8-PI(4,5)P2 as substrate after 20 mins by AlphaScreen assay
pIC50: −log10 of the molar value.
Assay Metric: pIC50

Answered cases to consult:
C[C@@H](Nc1cc(N2CCOCC2)nc(=O)[nH]1)c1cccc2ccccc12 4.44
O=c1cc(N2CCOCC2)nc(NCc2cc(Cl)ccc2Cl)[nH]1 5.85
O=c1cc(N2CCOCC2)nc(NCc2cccc3ccccc23)[nH]1 7.03
O=c1nc(N2CCOCC2)cc(NCc2ccccc2)[nH]1 4.54
NC(=O)c1cc(N2CCOCC2)nc(NCc2ccccc2)n1 5.60
c1ccc(CNc2cc(N3CCOCC3)ncn2)cc1 4.44

(1) C[C@H](Nc1cc(N2CCOCC2)nc(=O)[nH]1)c1cccc2ccccc12
(2) O=c1cc(N2CCOCC2)nc(NCc2cccc(Cl)c2Cl)[nH]1
Req: Between 1 and 2 , which one shows the larger pIC50 value? Pick one and reply with its label.
Resp: 2
(2: 7.08, 1: 5.00)

(1) O=c1cc(N2CCOCC2)nc(NCc2ccccc2Cl)[nH]1
(2) O=c1nc(N2CCOCC2)cc(NCc2cccc(Cl)c2Cl)[nH]1
Req: Between 1 and 2 , which one shows the larger pIC50 value? Pick one and reply with its label.
Resp: 1
(1: 6.24, 2: 5.82)

(a) O=c1cc(NCc2ccccc2)nc(N2CCOCC2)[nH]1
(b) O=c1cc(NCc2ccccc2)[nH]c(N2CCOCC2)c1
Req: Between a and b , which one shows the larger pIC50 value? Pick one and reply with its label.
Resp: b
(b: 4.47, a: 4.20)
